substrate: O=[N+]([O-])c1ccc(Cl)c2nonc12; test: purified protein; type: biochemical, Oryza sativa; details: 1.0 mM GSH fixed, NBD-Cl 0.1-1.0 mM, 25 °C, apparent Km, Km above tested range
MEASURED ENDPOINT: Vmax

Indicate the recorded Vmax value for this protein: OsGSTU17 (Oryza sativa Japonica Group; M17A) (protein, about 25 kDa subunit; dimeric enzyme; mutants L112A and W165A expressed at 20 °C) MAADKGVKVFGMWASPAAIRVEWALRLKGVDYEYVDEDLANKSEALLRHNPVTKKVPVLVHDGKPLAESTVIVEYIDEAWKHGYPIMPSDPFDRAQARFWARFAEEKCNAALYPIFMTTGEEQRKLVHEAQQCLKTLETALEGKKFFGGDAFGYLDIVTGWFAYWLPVIEEACGVEVVTDEALPLMKAWFDRVLAVDAVKAVLPPRDKLVALNKARREQILSA 0.83 µM/min/mg
